biological target: Protein mono-ADP-ribosyltransferase PARP10 (Homo sapiens, UniProt Q53GL7)
Sequence (Q53GL7 whole entry): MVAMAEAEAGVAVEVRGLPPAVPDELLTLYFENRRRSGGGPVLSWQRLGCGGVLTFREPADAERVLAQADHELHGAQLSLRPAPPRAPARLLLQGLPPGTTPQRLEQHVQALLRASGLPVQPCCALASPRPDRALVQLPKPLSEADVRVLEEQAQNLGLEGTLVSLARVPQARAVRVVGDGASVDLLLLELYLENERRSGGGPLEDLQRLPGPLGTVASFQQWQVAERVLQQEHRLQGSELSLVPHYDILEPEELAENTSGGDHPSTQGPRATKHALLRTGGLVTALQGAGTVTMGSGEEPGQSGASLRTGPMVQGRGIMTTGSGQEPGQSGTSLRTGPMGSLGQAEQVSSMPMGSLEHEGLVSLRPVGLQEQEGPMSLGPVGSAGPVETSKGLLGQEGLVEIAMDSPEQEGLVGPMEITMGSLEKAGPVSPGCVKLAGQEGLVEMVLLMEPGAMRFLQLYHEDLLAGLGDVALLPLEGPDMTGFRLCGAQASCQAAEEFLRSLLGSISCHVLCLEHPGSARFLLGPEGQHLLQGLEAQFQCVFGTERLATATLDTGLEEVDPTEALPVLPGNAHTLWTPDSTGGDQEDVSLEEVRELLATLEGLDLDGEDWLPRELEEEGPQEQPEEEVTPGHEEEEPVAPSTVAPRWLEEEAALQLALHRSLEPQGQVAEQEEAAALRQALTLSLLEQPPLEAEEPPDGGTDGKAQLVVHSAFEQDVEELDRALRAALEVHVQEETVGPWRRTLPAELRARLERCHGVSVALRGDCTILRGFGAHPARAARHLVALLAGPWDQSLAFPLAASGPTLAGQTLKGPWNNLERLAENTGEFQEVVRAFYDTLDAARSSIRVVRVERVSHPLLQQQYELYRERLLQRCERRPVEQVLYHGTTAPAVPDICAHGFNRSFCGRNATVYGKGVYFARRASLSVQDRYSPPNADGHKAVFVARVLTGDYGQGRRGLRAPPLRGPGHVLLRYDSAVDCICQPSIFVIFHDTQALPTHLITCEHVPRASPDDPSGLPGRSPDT
METRIC: Kd

## Input Form field: reported Kd of CCc1cc2ncc(CN3CCN(c4ccc(C(=O)NC)nc4)CC3)cc2[nH]c1=O
## Output > 10 µM

---

As an illustration, consider measured IC50 for compounds on Poly [ADP-ribose] polymerase 1 (Homo sapiens).
Sequence (P09874 whole entry): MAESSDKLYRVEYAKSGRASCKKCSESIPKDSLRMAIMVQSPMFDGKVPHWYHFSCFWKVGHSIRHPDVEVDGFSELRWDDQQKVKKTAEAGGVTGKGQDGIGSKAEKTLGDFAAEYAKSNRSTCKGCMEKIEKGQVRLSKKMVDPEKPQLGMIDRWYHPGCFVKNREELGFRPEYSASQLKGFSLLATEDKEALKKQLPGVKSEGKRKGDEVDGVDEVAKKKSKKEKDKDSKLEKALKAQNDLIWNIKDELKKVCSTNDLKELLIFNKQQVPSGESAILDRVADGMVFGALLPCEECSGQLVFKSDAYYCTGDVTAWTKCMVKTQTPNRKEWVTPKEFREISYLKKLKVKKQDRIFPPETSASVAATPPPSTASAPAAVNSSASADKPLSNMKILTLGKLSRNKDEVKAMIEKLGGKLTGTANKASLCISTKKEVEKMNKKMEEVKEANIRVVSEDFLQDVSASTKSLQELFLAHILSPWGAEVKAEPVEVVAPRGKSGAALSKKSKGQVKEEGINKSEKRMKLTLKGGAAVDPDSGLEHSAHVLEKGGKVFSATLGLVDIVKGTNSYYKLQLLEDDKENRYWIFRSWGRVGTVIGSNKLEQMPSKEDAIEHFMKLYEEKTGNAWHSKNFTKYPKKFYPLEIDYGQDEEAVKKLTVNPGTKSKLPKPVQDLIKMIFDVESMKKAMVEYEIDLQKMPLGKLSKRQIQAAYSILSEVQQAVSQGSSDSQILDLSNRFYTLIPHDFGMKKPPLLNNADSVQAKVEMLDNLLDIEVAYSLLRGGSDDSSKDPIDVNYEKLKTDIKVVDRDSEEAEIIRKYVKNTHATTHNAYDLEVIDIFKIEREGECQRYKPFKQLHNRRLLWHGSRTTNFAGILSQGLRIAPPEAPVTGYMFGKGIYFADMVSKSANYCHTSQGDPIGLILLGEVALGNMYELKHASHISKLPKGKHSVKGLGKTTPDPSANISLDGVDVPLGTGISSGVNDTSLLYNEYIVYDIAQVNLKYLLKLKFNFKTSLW
A number alone suffices; assume nM.

## Input Query for Poly [ADP-ribose] polymerase 1 (Homo sapiens): what IC50 does the record show for Cc1cnc(N2CCN(Cc3ccc4c5c(c(=O)[nH]c4c3)CCCN5)CC2)n1C ?
## Output 51

## Input Then CCc1cc2ccc(CN3CCN(c4ccc(C(=O)NC)nc4)CC3)cc2[nH]c1=O ?
## Output 5

## Input Then CCc1cc2ccc(CN3CCN(c4ccc(C(=O)NC)nn4)CC3)cc2[nH]c1=O ?
## Output 4

## Input Then O=c1[nH]c(CCCN2CC=C(c3ccc(F)cc3)CC2)nc2c(Cl)cccc12 ?
## Output 65

---

test: Plasma clearance in rat; type: ADME
METRIC: clearance (mL/min/kg)
A number alone suffices; assume mL/min/kg.

## Input Form field: reported clearance of CCc1cc2ncc(CN3CCN(c4ccc(C(=O)NC)nc4)CC3)cc2[nH]c1=O
## Output 1.1

---

biological target: Protein mono-ADP-ribosyltransferase PARP11 (Homo sapiens)
Sequence (Q9NR21 whole entry): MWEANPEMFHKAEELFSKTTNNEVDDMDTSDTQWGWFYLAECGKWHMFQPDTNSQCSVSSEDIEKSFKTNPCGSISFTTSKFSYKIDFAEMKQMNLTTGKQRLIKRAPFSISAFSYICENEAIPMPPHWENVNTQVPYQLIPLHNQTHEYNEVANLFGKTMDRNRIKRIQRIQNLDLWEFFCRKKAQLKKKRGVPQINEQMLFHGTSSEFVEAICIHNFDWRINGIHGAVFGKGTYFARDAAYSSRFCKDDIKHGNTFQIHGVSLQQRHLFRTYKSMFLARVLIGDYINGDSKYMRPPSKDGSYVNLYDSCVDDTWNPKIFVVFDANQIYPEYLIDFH
METRIC: Kd

## Input Form field: reported Kd of NC(=O)c1cccc2cn(-c3ccc([C@@H]4CCCNC4)cc3)nc12
## Output > 10 µM

---

experiment: Plasma clearance in mouse; format: ADME, organism-based
METRIC: clearance (mL/min/kg)
A number alone suffices; assume mL/min/kg.

## Input Form field: reported clearance of CCc1cc2ncc(CN3CCN(c4ccc(C(=O)NC)nc4)CC3)cc2[nH]c1=O [SARUPARIB]
## Output 0.23

---

assay: Plasma clearance in monkey; format: ADME, Macaca mulatta; settings: rhesus monkey
METRIC: clearance (mL/min/kg)
A number alone suffices; assume mL/min/kg.

## Input Form field: reported clearance of CCc1cc2ncc(CN3CCN(c4ccc(C(=O)NC)nc4)CC3)cc2[nH]c1=O
## Output 0.84

---

assay: Oral bioavailability in mouse; format: ADME, organism-based; conditions: in vivo
METRIC: bioavailability (%)
A number alone suffices; assume %.

## Input Form field: reported bioavailability of CCc1cc2ncc(CN3CCN(c4ccc(C(=O)NC)nc4)CC3)cc2[nH]c1=O
## Output 77

---

Please respond with reported microsomal CLint for every item in the list.
assay: in vitro; conditions: human, liver microsomes
A number alone suffices; assume µL/min/mg.

## Input Form field: reported microsomal CLint of CCc1nc2ccc(CN3CCN(c4ccc(C(=O)NC)nc4)CC3)cc2[nH]c1=O
## Output 7

## Input Then CCc1cc2ccc(CN3CCN(c4ncc(C)n4C)CC3)cc2[nH]c1=O ?
## Output 25

## Input Then Cc1cnc(N2CCN(CCCc3nc4c(Cl)cccc4c(=O)[nH]3)CC2)n1C ?
## Output 44

## Input Then CCc1cc2cnc(CN3CCN(c4ccc(C(=O)NC)nc4)CC3)cc2[nH]c1=O ?
## Output 6

## Input Then CCc1cc2ccc(CN3CCN(c4ccc(C(=O)NC)nn4)CC3)cc2[nH]c1=O ?
## Output 14

## Input Then Cc1cnc(N2CCN(Cc3ccc4c5c(c(=O)[nH]c4c3)CCCC5)CC2)n1C ?
## Output 57

## Input Then CCc1cc2ccc(CN3CCN(c4ccc(C(=O)NC)nc4)CC3)cc2[nH]c1=O ?
## Output 17

## Input Then CCc1cc2ccc(CN3CCN(c4ccc(F)cc4F)CC3)cc2[nH]c1=O ?
## Output 16

Just for reference, ChEMBL document CHEMBL5150005 is where these values come from.
